- Target Entity: human IgG (human)
- Protocol Description: SPR, synthetic peptide
Ends that are not written are not given here.
Assay Metric: Kd (µM)
Give the value, in units of µM, as a plain number.

1. GPDCTYTNGNLVWCTFH (not fully specified (bridges); cysteine pairing not given here) [GFc-C35]; 14
2. DCAYTNGNLVWCT [GFc-C35-3/15 (T5A)]; 61

Please examine the following record next.
response.value for DCTYTRGNLVWCT [GFc-C35-3/15 (N8R)] (field: Kd) = 8

Sourced from patent US20140274790A1
